Measured IC50 of individual entries
- TARGET_UNDER_TEST: Mitogen-activated protein kinase kinase kinase 5 (Homo sapiens)
- TEST_NAME: HTRF KinEASE Assay : ASK1 was purchased from Thermofisher (Catalogue #PV4011), ATP was purchased from Sigma (Catalogue #A7699), HTRF® KinEASE Assay System was obtained from Cisbio (Bedford, Mass.). ½ Area plate was purchased from Perkin Elmer (Catalogue ##6005560). HTRF® KinEASE-STK is a generic method for measuring serine/threonine kinase activities using a time-resolved fluorescence resonance energy transfer (TR-FRET) immunoassay. The IC50 value for each compound was determined in the presence of compound (various concentration from 0 to 10 μM) and a fixed amount of ATP and peptide substrates. The test compound, 1 μM STK3 peptide substrate, and […] are incubated with kinase reaction buffer containing 50 mM HEPES Ph 7.5, 0.01% BRIJ-35, 10 mM MgCl2, and 1 mM EGTA for 30 minutes. 100 μM ATP is added to start kinase reaction and incubated for 3 hours. The STK3-antibody labeled with Eu3+-Cryptate and 125 nM streptavidin-XL665 are mixed in a single addition with stop reagents provided by the Cisbio kit used to stop the kinase reaction. Fluorescence is detected using an Envision Multilabeled 2014 reader from PerkinElmer. The Fluorescence is measured at 615 nm (Cryptate) and 665 nm (XL665) and a ratio of 665 nm/615 nm is calculated for each well. The resulting TR-FRET is proportional to the phosphorylation level. Staurosporine was used as the positive control. IC50 was determined by Xlfit 5.3.

MOL_SMILES	TARGET_UNDER_TEST	IC50
COc1cc2c(cc1C(=O)Nc1cccc(-c3nnnn3[C@H](C)CO)n1)CN(S(=O)(=O)CCC(F)(F)F)CC2	Mitogen-activated protein kinase kinase kinase 5 (Homo sapiens)	1.25 to 10 nM
C[C@H](CO)n1cnnc1-c1cccc(NC(=O)c2cc3c(cn2)CCN(Cc2ccccn2)C3)n1	Mitogen-activated protein kinase kinase kinase 5 (Homo sapiens)	< 1.25 nM
C[C@H](CO)n1cnnc1-c1cccc(NC(=O)c2cc3c(cc2F)CCN(C(=O)c2ccc(F)cc2)C3)n1	Mitogen-activated protein kinase kinase kinase 5 (Homo sapiens)	1.25 to 10 nM
C[C@H](CO)n1cnnc1-c1cccc(NC(=O)c2cc3c(cc2F)CCN(C(=O)N(C)C)C3)n1	Mitogen-activated protein kinase kinase kinase 5 (Homo sapiens)	1.25 to 10 nM
C[C@H](CO)n1cnnc1-c1cccc(NC(=O)c2cc3c(cn2)CCN(S(=O)(=O)N(C)C)C3)n1	Mitogen-activated protein kinase kinase kinase 5 (Homo sapiens)	< 1.25 nM
COc1cc2c(cc1C(=O)Nc1cccc(-c3nnnn3[C@H](C)CO)n1)CN(C(=O)OCc1ccccc1)CC2	Mitogen-activated protein kinase kinase kinase 5 (Homo sapiens)	< 1.25 nM
COc1cc2c(cc1C(=O)Nc1cccc(-c3nnnn3[C@H](C)CO)n1)CN(C)CC2	Mitogen-activated protein kinase kinase kinase 5 (Homo sapiens)	1.25 to 10 nM
C[C@H](CO)n1cnnc1-c1cccc(NC(=O)c2cc3c(cc2F)CCN(C(=O)OCCF)C3)n1	Mitogen-activated protein kinase kinase kinase 5 (Homo sapiens)	< 1.25 nM
COc1cc2c(cc1C(=O)Nc1cccc(-c3nncn3C(C)C)n1)CN(C(=O)C(C)(C)C)CC2	Mitogen-activated protein kinase kinase kinase 5 (Homo sapiens)	1.25 to 10 nM
CC(C)n1cnnc1-c1cccc(NC(=O)c2cc3c(cn2)CCN(C(=O)c2ccc(F)cc2)C3)n1	Mitogen-activated protein kinase kinase kinase 5 (Homo sapiens)	1.25 to 10 nM
COc1cc2c(cc1C(=O)Nc1cccc(-c3nnnn3[C@H](C)CO)n1)CN(C(=O)c1ccc(F)cc1)CC2	Mitogen-activated protein kinase kinase kinase 5 (Homo sapiens)	< 1.25 nM
CCNC(=O)N1CCc2cc(OC)c(C(=O)Nc3cccc(-c4nnnn4C(C)C)n3)cc2C1	Mitogen-activated protein kinase kinase kinase 5 (Homo sapiens)	< 1.25 nM
CC(C)n1cnnc1-c1cccc(NC(=O)c2cc3c(cn2)CCN(S(=O)(=O)c2ccccc2)C3)n1	Mitogen-activated protein kinase kinase kinase 5 (Homo sapiens)	1.25 to 10 nM

* * *

Measured IC50 of individual entries
- TARGET_UNDER_TEST: Mitogen-activated protein kinase kinase kinase 5 (Homo sapiens, UniProt Q99683)
- Sequence (Q99683 whole entry): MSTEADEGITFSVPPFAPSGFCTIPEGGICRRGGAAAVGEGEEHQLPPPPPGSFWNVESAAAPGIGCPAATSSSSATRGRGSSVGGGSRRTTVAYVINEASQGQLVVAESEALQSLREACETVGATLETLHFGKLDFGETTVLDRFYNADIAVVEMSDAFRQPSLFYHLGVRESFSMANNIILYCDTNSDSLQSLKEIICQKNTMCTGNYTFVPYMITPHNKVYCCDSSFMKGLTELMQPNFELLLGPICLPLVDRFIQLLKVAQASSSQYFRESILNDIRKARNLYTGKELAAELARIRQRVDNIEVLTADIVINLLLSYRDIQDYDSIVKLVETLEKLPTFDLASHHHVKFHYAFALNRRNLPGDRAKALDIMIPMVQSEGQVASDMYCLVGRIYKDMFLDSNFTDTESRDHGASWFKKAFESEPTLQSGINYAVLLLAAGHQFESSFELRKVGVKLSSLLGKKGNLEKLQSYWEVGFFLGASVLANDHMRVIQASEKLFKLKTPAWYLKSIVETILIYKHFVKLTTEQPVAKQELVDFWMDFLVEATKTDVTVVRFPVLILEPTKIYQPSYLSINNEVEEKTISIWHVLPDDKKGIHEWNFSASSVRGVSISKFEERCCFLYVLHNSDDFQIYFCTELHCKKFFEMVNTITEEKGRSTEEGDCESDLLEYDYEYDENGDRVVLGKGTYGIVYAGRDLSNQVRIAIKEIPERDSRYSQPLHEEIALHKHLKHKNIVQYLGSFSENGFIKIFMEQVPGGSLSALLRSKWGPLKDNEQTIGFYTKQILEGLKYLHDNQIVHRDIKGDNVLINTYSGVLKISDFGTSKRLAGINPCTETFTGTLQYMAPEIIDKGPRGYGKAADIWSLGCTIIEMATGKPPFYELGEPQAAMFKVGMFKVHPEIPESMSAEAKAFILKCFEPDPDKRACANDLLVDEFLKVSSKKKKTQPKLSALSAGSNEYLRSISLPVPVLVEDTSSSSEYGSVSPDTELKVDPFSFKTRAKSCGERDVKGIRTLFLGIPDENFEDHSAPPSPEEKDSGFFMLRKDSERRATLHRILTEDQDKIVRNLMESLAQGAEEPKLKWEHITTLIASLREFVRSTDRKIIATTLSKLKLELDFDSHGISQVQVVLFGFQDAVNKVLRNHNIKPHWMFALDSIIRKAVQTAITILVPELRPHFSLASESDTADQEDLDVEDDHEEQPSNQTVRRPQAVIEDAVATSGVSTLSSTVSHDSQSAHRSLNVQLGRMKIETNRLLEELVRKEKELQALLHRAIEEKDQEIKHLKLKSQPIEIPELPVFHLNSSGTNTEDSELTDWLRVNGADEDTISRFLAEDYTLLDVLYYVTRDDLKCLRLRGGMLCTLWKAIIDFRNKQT
- TEST_NAME: HTRF KinEASE Assay : ASK1 was purchased from Thermofisher (Catalogue #PV4011), ATP was purchased from Sigma (Catalogue #A7699), HTRF® KinEASE Assay System was obtained from Cisbio (Bedford, Mass.). ½ Area plate was purchased from Perkin Elmer (Catalogue ##6005560). HTRF® KinEASE-STK is a generic method for measuring serine/threonine kinase activities using a time-resolved fluorescence resonance energy transfer (TR-FRET) immunoassay. The IC50 value for each compound was determined in the presence of compound (various concentration from 0 to 10 μM) and a fixed amount of ATP and peptide substrates. The test compound, 1 μM STK3 peptide substrate, and […] are incubated with kinase reaction buffer containing 50 mM HEPES Ph 7.5, 0.01% BRIJ-35, 10 mM MgCl2, and 1 mM EGTA for 30 minutes. 100 μM ATP is added to start kinase reaction and incubated for 3 hours. The STK3-antibody labeled with Eu3+-Cryptate and 125 nM streptavidin-XL665 are mixed in a single addition with stop reagents provided by the Cisbio kit used to stop the kinase reaction. Fluorescence is detected using an Envision Multilabeled 2014 reader from PerkinElmer. The Fluorescence is measured at 615 nm (Cryptate) and 665 nm (XL665) and a ratio of 665 nm/615 nm is calculated for each well. The resulting TR-FRET is proportional to the phosphorylation level. Staurosporine was used as the positive control. IC50 was determined by Xlfit 5.3.
PARAMETER: IC50

MOL_SMILES	TARGET_UNDER_TEST	PARAMETER	TEST_VALUE
COc1cc2c(cc1C(=O)Nc1cccc(-c3nnnn3[C@H](C)CO)n1)CN(C(=O)C(C)(C)CO)CC2	Mitogen-activated protein kinase kinase kinase 5 (Homo sapiens, UniProt Q99683)	IC50	1.25 to 10 nM
COc1cc2c(cc1C(=O)Nc1cccc(-c3nncn3[C@H](C)CO)n1)CN(S(=O)(=O)C1CC1)CC2	Mitogen-activated protein kinase kinase kinase 5 (Homo sapiens, UniProt Q99683)	IC50	1.25 to 10 nM
C[C@H](CO)n1cnnc1-c1cccc(NC(=O)c2cc3c(cc2F)CCN(C(=O)OCC(F)(F)F)C3)n1	Mitogen-activated protein kinase kinase kinase 5 (Homo sapiens, UniProt Q99683)	IC50	< 1.25 nM
CCNC(=O)N1CCc2cc(OC)c(C(=O)Nc3cccc(-c4nncn4[C@H](C)CO)n3)cc2C1	Mitogen-activated protein kinase kinase kinase 5 (Homo sapiens, UniProt Q99683)	IC50	< 1.25 nM
COc1cc2c(cc1C(=O)Nc1cccc(-c3nncn3C(C)C)n1)CN(C(=O)OCC(F)(F)F)CC2	Mitogen-activated protein kinase kinase kinase 5 (Homo sapiens, UniProt Q99683)	IC50	< 1.25 nM
CC(C)OC(=O)N1CCc2cc(F)c(C(=O)Nc3cccc(-c4nncn4[C@H](C)CO)n3)cc2C1	Mitogen-activated protein kinase kinase kinase 5 (Homo sapiens, UniProt Q99683)	IC50	< 1.25 nM
COc1cc2c(cc1C(=O)Nc1cccc(-c3nnnn3C(C)C)n1)CN(C(=O)OCC(F)(F)F)CC2	Mitogen-activated protein kinase kinase kinase 5 (Homo sapiens, UniProt Q99683)	IC50	< 1.25 nM
